assay: NCI Yeast Anticancer Drug Screen. Data for the sgs1 mgt1 strain (AID 161);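 note: 0% = growth of cultures given vehicle only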; details: S. cerevisiae sgs1 mgt1 strain, at 50.0 µM (retest, dose inferred, filed as 5.0), stronger effect = higher value
This is part of a sample that, as a whole, favours compounds with a hit. Of some 79,000 tested, about 15% had one in any assay.
attribute-measured: growth inhibition (%)
Numeric only. Scale: %

>>> number("CCC[CH2][Sn]1([CH2]CCC)[O]N=Cc2ccccc2[O]1")
98
>>> number("COC1=C(C)C(=O)C2=C(C1=O)C(CO)N1C(C#N)C3CC4C(C1C2N1CCOC41)N3C (stereo unspecified)")
47
>>> number("COc1cc(C(=O)CCN(CCCl)CCCl)cc(OC)c1OC")
82
>>> number("O=[N+]([O-])C(Br)CO (stereo unspecified)")
94
>>> number("CC(C)CCCC(C)CCC1C(=O)NC(=O)NC1=O (stereo unspecified)")
21
>>> number("COc1ccc(C(Cc2ccc(Cl)c(Cl)c2)NCCO)cc1 (stereo unspecified)")
27
>>> number("CCCCCCNC(=O)CI")
87
>>> number("CN(C)CC(Cl)CCl (stereo unspecified)")
75
>>> number("CCC1(O)C(=O)OCc2c1cc1n(c2=O)Cc2c-1nc1ccccc1c2OC (stereo unspecified)")
33
>>> number("O=[N+]([O-])[O-].O=[N+]([O-])[O-].[Au].[Au].c1ccc([P-]c2ccccc2)cc1.c1ccc([P-]c2ccccc2)cc1")
96

Please examine the following record next.
Query: Look up growth inhibition: "Cc1cc[n+](C2=C(Nc3cc(C)cc(C)c3)C(=O)c3ccccc3C2=O)cc1"
Response: 16

* * *

assay: NCI Yeast Anticancer Drug Screen. Data for the CLN2oe strain (AID 163);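 note: 0% = growth of vehicle-only control cultures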; conditions: S. cerevisiae CLN2oe strain, at 33.0 µM
About 79,000 compounds went through this panel and 15% of them were active in at least one assay; those are over-represented in the sample as a whole. The source made the active and inactive calls. Rule as the data show it: active = growth inhibition above about 70%; inactive = the rest.
Valid outcomes are listed here; reply with one: t = active, f = inactive

Worked set:
>>> category("CCC1(O)C(=O)OCc2c1cc1n(c2=O)Cc2cc3ccccc3nc2-1 (centres undefined)")
"f"
>>> category("OC1CCCC2CCC[N-]C12.OC1CCCC2CCC[N-]C12.[O]=[V][OH] (centres undefined)")
"t"
>>> category("Cc1c([N+](=O)[O-])oc2ccc3ccccc3c12")
"f"

Query: Dear colleague, could you share the recorded outcome for CCC1(O)C(=O)OCc2c1cc1n(c2=O)Cc2cc3cc(Cl)ccc3nc2-1 (centres undefined) when you have a moment?
Response: f

Query: Dear colleague, could you share the recorded outcome for "O=C(Nc1cc(Cl)ccc1Cl)C(Cl)(Cl)Cl" when you have a moment?
Response: f

Query: Dear colleague, could you share the recorded outcome for COc1cccc2c1C(=O)c1c(O)c3c(c(O)c1C2=O)C[C@@](O)(C(C)=O)C[C@@H]3OC1CC(N)C(OC2CC(O)C(O)C(C)O2)C(C)O1 (some centres undefined) when you have a moment?
Response: f

Query: Dear colleague, could you share the recorded outcome for "O=[N+]([O-])c1cc(S(=O)(=O)F)ccc1Cl" when you have a moment?
Response: t

Query: Dear colleague, could you share the recorded outcome for C[CH2][Sn]1([CH2]C)[O]C2C(O)OC(CO)C(O)C2[O]1 (centres undefined) when you have a moment?
Response: f

Query: Dear colleague, could you share the recorded outcome for "NCCc1ccc(OCc2ccccc2)c(OCc2ccccc2)c1" when you have a moment?
Response: f

Query: Dear colleague, could you share the recorded outcome for COC(=O)C1C2c3ccccc3C(c3ccccc32)C1C(=O)OC (centres undefined) when you have a moment?
Response: f

Query: Dear colleague, could you share the recorded outcome for "Cc1c2ccccc2cc2ccccc12" when you have a moment?
Response: t

Query: Dear colleague, could you share the recorded outcome for CCC(=O)OC1CCn2c1nc1c2C(=O)C(C)=C(N2CC2)C1=O (centres undefined) when you have a moment?
Response: f

Query: Dear colleague, could you share the recorded outcome for "C[N+](CCCl)(CCCl)Cc1cccc2cccc([N+](=O)[O-])c12" when you have a moment?
Response: f

Query: Dear colleague, could you share the recorded outcome for "CCN(CCCl)c1cc(CN(C)C)cc(NC(=O)c2ccc(C(=O)Nc3cc(CN(C)C)cc(N(CC)CCCl)c3)cc2)c1" when you have a moment?
Response: f

Query: Dear colleague, could you share the recorded outcome for COC1C(O)C(C)OC(OC2C(Oc3cccc4c(O)c5c(=O)oc6ccc(C)c7c(=O)oc(c34)c5c67)OC(C)C(O)C2O)C1O (centres undefined) when you have a moment?
Response: f

Query: Dear colleague, could you share the recorded outcome for "O=[N+]([O-])c1oc2ccc3ccccc3c2c1CCO" when you have a moment?
Response: t

Query: Dear colleague, could you share the recorded outcome for C[C@]12CCC(=O)C=C1CC[C@@H]1C2CC[C@@]2(C)C1CC[C@@H]2OC(=O)C12OC1CCC2=O (some centres undefined) when you have a moment?
Response: f

Query: Dear colleague, could you share the recorded outcome for CC1CCC2(NC1)OC1CC3C4CCC5CC(OC6OC(CO)C(OC7OC(CO)C(O)C(OC8OCC(O)C(O)C8O)C7OC7OC(CO)C(O)C(O)C7O)C(O)C6O)CCC5(C)C4CCC3(C)C1C2C (centres undefined) when you have a moment?
Response: f
